target-under-test: TYK2 JH2 (Homo sapiens)
Construct: purchased DiscoverX (KINOMEscan KdELECT service); host or cells: E. coli BL21-derived (T7 phage display) or HEK-293
measurement-description: TYK2 JH2 binding assay (KINOMEscan KdELECT competitive binding)
test-settings: TYK2 JH2 domain, DiscoverX KINOMEscan KdELECT (Assay A); read-out: Biochemical TYK2_DiscoverX_JH2_BND_Kd
quantity: Kd

molecule="CNc1ncc(-c2nc3cc(O[C@H]4C[C@@H](COC)C4)ccc3o2)c2cc(NC(=O)C3CC3)ncc12 [Example 347]" result="≤ 0.1 µM"

Exercise: Form field: reported Kd of CNc1ncc(-c2nc3cc(/C(C)=N\OC)ccc3o2)c2cc(NC(=O)C3CC3)ncc12 [Example 462]
Solution: ≤ 0.1 µM

Exercise: # lookup: Kd of [2H]C([2H])([2H])Nc1ncc(-c2nc3ccc(N4CCO[C@@H](C)C4)cn3n2)c2cc(NC(=O)[C@H]3C[C@H]3C(F)F)ncc12 (single isomer, unassigned) [Example 574]
Solution: ≤ 0.1 µM

Exercise: GET /values?readout=Kd&item= CNc1ncc(-c2nc3cc(Br)ccc3o2)c2cc(NC(=O)C3CC3)ncc12 [Example 209]
Solution: ≤ 0.1 µM

Exercise: Quick check: Kd of CNc1ncc(-c2nc3ccc(N4CCC(F)C4)cn3n2)c2cc(NC(=O)C3CC3)ncc12 (stereo not shown) [Example 486] ?
Solution: ≤ 0.1 µM

Exercise: Which Kd is listed for CNc1ncc(-c2nc3cc(C(C)=O)ccc3o2)c2cc(NC(=O)C3CC3)ncc12 [Example 216] ?
Solution: ≤ 0.1 µM

Exercise: Entry CNc1ncc(-c2nc3cc(OC)ccc3o2)c2cc(NC(=O)[C@@H]3C[C@@H]3C(F)(F)F)ncc12 (racemic) [Example 396] : reported Kd = ?
Solution: ≤ 0.1 µM

====

# Kd values compiled below
target-under-test: TYK2 JH2 (Homo sapiens, UniProt P29597)
Construct: purchased DiscoverX (KINOMEscan KdELECT service); host or cells: E. coli BL21-derived (T7 phage display) or HEK-293
Sequence (P29597 589-875 limits assumed): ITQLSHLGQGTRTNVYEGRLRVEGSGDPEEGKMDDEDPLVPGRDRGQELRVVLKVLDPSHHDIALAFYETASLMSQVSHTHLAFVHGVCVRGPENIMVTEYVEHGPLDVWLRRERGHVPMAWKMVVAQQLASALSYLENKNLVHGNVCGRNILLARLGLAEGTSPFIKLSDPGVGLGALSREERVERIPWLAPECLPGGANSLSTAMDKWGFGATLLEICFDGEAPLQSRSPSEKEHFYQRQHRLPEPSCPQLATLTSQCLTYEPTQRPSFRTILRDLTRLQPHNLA
measurement-description: TYK2 JH2 binding assay (KINOMEscan KdELECT competitive binding)
test-settings: TYK2 JH2 domain, KINOMEscan KdELECT (Assay A); read-out: Biochemical TYK2_DiscoverX_JH2_BND_Kd

compound=CNc1ncc(CCc2ccc3nnn(C)c3c2)c2cc(NC(=O)C3CC3)ncc12 result="≤ 100 nM"

Exercise: I am curious: what Kd value has been reported for `CNc1ncc(C#Cc2cc3c(cc2C)nnn3C)c2cc(NC(=O)C3CC3)ncc12` ?
Solution: ≤ 100 nM

Exercise: Which Kd is reported for this compound? `CNc1ncc(CCc2cc(OC)cc(-c3ncnn3C)c2)c2cc(NC(=O)C3CC3)ncc12`
Solution: ≤ 100 nM

Exercise: Fill blank: measured Kd of the compound `CNc1ncc(-c2nc3cc(NC(=O)CC4CC4)ccc3o2)c2cc(NC(=O)C3CC3)ncc12` is ____.
Solution: ≤ 100 nM

Exercise: # query: Kd of entry CNc1ncc(-c2nc3ccc(N4CCOC(C(C)(C)O)C4)cn3n2)c2cc(NC(=O)C3CC3)ncc12 (centres unmarked)
Solution: ≤ 100 nM

Exercise: I am curious: what Kd value has been reported for `CNc1ncc(-c2nc3cc(OCC(C)(C)F)ccc3o2)c2cc(NC(=O)C3CC3)ncc12` ?
Solution: ≤ 100 nM

Exercise: Record request: Kd value, item `CNc1ncc(C#Cc2cccc3c2OCCC3)c2cc(NC(=O)C3CC3)ncc12`
Solution: ≤ 100 nM

Exercise: Give its Kd value. Item: `CNc1ncc(C#Cc2ccc3nc4n(c3c2)CCCC4)c2cc(NC(=O)C3CC3)ncc12`
Solution: ≤ 100 nM

Cited source: patent US20240025906A1
